# RUN DESCRIPTION: Pharmacokinetics and oral bioavailability of D8.3.p1 and D10.1 in Balb/C female mice (PO, SQ, IV)
# Assay type: in vivo
# DETAILS: female, Balb/C, mouse, plasma, sc, 12.2 mg/kg, D10.1 SQ 12.2 mg/kg, 360 min, individual mice M1, M3 (M2 ND); read-out: Plasma level
OBSERVED PROPERTY: level at time molar at 6 h (nM)
Answers are plain numbers, in nM.

# input I am curious: what level at time molar at 6 h value has been reported for CC[C@H](C)[C@@H]1NC(=O)[C@@H](CC(C)C)NC(=O)[C@H](CC(C)C)N(C)C(=O)[C@H](Cc2ccccc2)NC(=O)CN(C)C(=O)[C@@H]2CCCN2C(=O)[C@H](C(C)C)NC(=O)[C@H](Cc2ccccc2)N(C)C(=O)[C@H]2CCCN2C(=O)[C@H](CC(C)C)NC1=O [Design D10.1] ?
# output 2400

* * *

# DETAILS: PAMPA
Where a SMILES comes first, the peptide text is derived from it. [ ]: non-standard residue; d: D form. dNMeI = CC[C@@H](C)[C@@H](NC)C(=O)O; NMeF = CN[C@@H](Cc1ccccc1)C(=O)O; dNMeF = CN[C@H](Cc1ccccc1)C(=O)O; NMeL = CN[C@@H](CC(C)C)C(=O)O; dNMeL = CN[C@H](CC(C)C)C(=O)O; dNMeV = CN[C@@H](C(=O)O)C(C)C; dNMeA = CN[C@H](C)C(=O)O
Exercise: state measured PAMPA_R1 for each of the compounds provided.
Numbers only.

A selection of reference data follows.
CC(C)C[C@@H]1NC(=O)[C@@H](CC(C)C)N(C)C(=O)[C@@H](CC(C)C)N(C)C(=O)[C@@H](CC(C)C)N(C)C(=O)[C@H](CC(C)C)NC(=O)[C@@H]2CCCN2C(=O)[C@H]2CCCN2C(=O)[C@H](Cc2ccccc2)NC1=O [Design D8.7, PHE DPRO PRO LEU *DLEU *DLEU *DLEU LEU] (cyclo(L[dNMeL][dNMeL][dNMeL]LF[dP]P))    1.94E-06
CC[C@H](C)[C@@H]1NC(=O)[C@@H](CC(C)C)NC(=O)[C@@H](C)N(C)C(=O)[C@H](Cc2ccccc2)NC(=O)[C@@H](CC(C)C)NC(=O)[C@@H](C)N(C)C(=O)[C@@H]2CCCN2C(=O)[C@H](C(C)C)NC(=O)[C@H]2CCCN2C(=O)[C@@H]2CCCN2C1=O [Design D10.31] (cyclo(F[dNMeA][dL]IP[dP]VP[dNMeA][dL]))    1.81E-06
CC(C)C[C@@H]1C(=O)N[C@H](C)C(=O)N2CCC[C@H]2C(=O)N(C)[C@H](CC(C)C)C(=O)N[C@@H](C)C(=O)N(C)[C@@H](CC(C)C)C(=O)N(C)[C@H](C(C)C)C(=O)N[C@H](Cc2ccccc2)C(=O)N2CCC[C@@H]2C(=O)N2CCC[C@H]2C(=O)N1C [Design D10.18] (cyclo([dNMeL][dA]P[dNMeL]A[NMeL][dNMeV][dF][dP]P))    9.23E-08
CC(C)C[C@H]1NC(=O)[C@H](CC(C)C)N(C)C(=O)[C@@H](Cc2ccccc2)NC(=O)[C@@H](C)N(C)C(=O)[C@@H]2CCCN2C(=O)[C@H](C(C)C)NC(=O)[C@H](CC(C)C)N(C)C(=O)[C@@H](C)NC(=O)[C@@H]2CCCN2C(=O)[C@H]2CCCN2C1=O [Design D10.32] (cyclo([dA][NMeL]VP[dNMeA][dF][NMeL][dL][dP]P))    2.87E-06
CC[C@@H](C)[C@H]1NC(=O)[C@H]([C@@H](C)CC)NC(=O)[C@H](Cc2ccccc2)N(C)C(=O)[C@H]2CCCN2C(=O)[C@@H]([C@H](C)CC)NC(=O)[C@@H]([C@H](C)CC)N(C)C(=O)[C@H](CC(C)C)NC(=O)[C@H]2CCCN2C(=O)[C@@H]2CCCN2C(=O)[C@H](C(C)C)NC(=O)[C@H]2CCCN2C1=O [Design D11.4] (cyclo(I[dI][dP]VP[dP]L[dNMeI][dI][dP][NMeF]))    1.64E-06

I need PAMPA_R1 for every entry listed below, if you could help.
1. CC[C@@H](C)[C@H]1NC(=O)[C@@H](CC(C)C)NC(=O)[C@@H](CC(C)C)NC(=O)[C@H]2CCCN2C(=O)[C@H](CC(C)C)N(C)C(=O)[C@@H](C)N(C)C(=O)[C@@H]2CCCN2C(=O)[C@@H]([C@H](C)CC)NC(=O)[C@@H](C(C)C)NC(=O)[C@@H]2CCCN2C1=O [Design D10.46] (cyclo([NMeL][dP][dL][dL][dI]P[dV][dI]P[dNMeA]))
2. CC(C)C[C@H]1NC(=O)[C@@H]2CCCN2C(=O)[C@@H](C(C)C)NC(=O)[C@@H](C)N(C)C(=O)[C@@H](C(C)C)NC(=O)[C@@H]2CCCN2C(=O)[C@@H](Cc2ccccc2)NC(=O)[C@H](CC(C)C)N(C)C(=O)[C@@H](C(C)C)NC1=O [Design D9.5] (cyclo([NMeL][dF]P[dV][dNMeA][dV]P[dL][dV]))
3. CC(C)C[C@H]1NC(=O)[C@@H](C)NC(=O)[C@@H](C)NC(=O)[C@H]2CCCN2C(=O)[C@@H]2CCCN2C(=O)[C@H]2CCCN2C(=O)[C@@H](C)NC(=O)[C@@H](Cc2ccccc2)N(C)C(=O)[C@H]2CCCN2C(=O)[C@@H](CC(C)C)NC(=O)[C@@H](CC(C)C)NC1=O [Design D11.25] (cyclo([dP][dA][dA][dL][dL][dL][dP][dNMeF][dA][dP]P))

# output
8.07E-07
3.32E-06
3.92E-07

* * *

# RUN DESCRIPTION: Parallel artificial membrane permeability assay (PAMPA)
# DETAILS: PAMPA Papp, replicate 1; BQL: No significant peak detected for the peptide in the acceptor wells
Where a SMILES comes first, the peptide text is derived from it. [ ]: non-standard residue; d: D form. NMeL = CN[C@@H](CC(C)C)C(=O)O; dNMeL = CN[C@H](CC(C)C)C(=O)O; dNMeV = CN[C@@H](C(=O)O)C(C)C; dNMeA = CN[C@H](C)C(=O)O
OBSERVED PROPERTY: PAMPA_R1

CC[C@@H](C)[C@H]1NC(=O)[C@@H](CC(C)C)N(C)C(=O)[C@@H]2CCCN2C(=O)[C@H](C(C)C)NC(=O)[C@@H](C)N(C)C(=O)[C@@H]2CCCN2C(=O)[C@@H](CC(C)C)NC(=O)[C@@H](C(C)C)N(C)C(=O)[C@@H]2CCCN2C(=O)[C@H](C)NC(=O)[C@H](C(C)C)NC(=O)[C@@H]2CCCN2C1=O [Design D12.5] (cyclo(AP[dNMeV][dL]P[dNMeA]VP[dNMeL][dI]PV))    1.24E-07
CC[C@@H](C)[C@H]1NC(=O)[C@@H](C)N(C)C(=O)[C@H](CC(C)C)NC(=O)[C@@H](CC(C)C)NC(=O)[C@H]2CCCN2C(=O)[C@H](CC(C)C)N(C)C(=O)[C@@H](C(C)C)NC(=O)[C@@H](CC(C)C)N(C)C(=O)[C@H](C(C)C)NC(=O)[C@@H](C(C)C)NC(=O)[C@@H]2CCCN2C(=O)[C@H]2CCCN2C1=O [Design D12.10] (cyclo([dV]V[dNMeL][dV][NMeL][dP][dL]L[dNMeA][dI][dP]P))    BQL
CC[C@@H](C)[C@H]1NC(=O)[C@H]2CCCN2C(=O)[C@H]([C@@H](C)CC)NC(=O)[C@@H]2CCCN2C(=O)[C@H]2CCCN2C(=O)[C@@H](CC(C)C)NC(=O)[C@H](CC(C)C)NC(=O)[C@H](C(C)C)NC(=O)[C@H](CC(C)C)NC(=O)[C@H](C)NC(=O)[C@H](C)NC(=O)[C@@H]2CCCN2C1=O [Design D12.1] (cyclo(I[dP][dI]PAALVL[dL][dP]P))    BQL
CC(C)C[C@@H]1NC(=O)[C@H](CC(C)C)N(C)C(=O)[C@H]2CCCN2C(=O)[C@H]2CCCN2C(=O)[C@H](CC(C)C)NC(=O)[C@@H](CC(C)C)N(C)C(=O)[C@@H](C)NC(=O)[C@@H](CC(C)C)N(C)C(=O)[C@H]2CCCN2C(=O)[C@@H](CC(C)C)NC(=O)[C@@H](C)N(C)C1=O [Design D11.15] (cyclo(L[dNMeA][dL][dP][dNMeL][dA][dNMeL]L[dP][dP][NMeL]))    9.49E-07

* * *

# DETAILS: PAMPA
Where a SMILES comes first, the peptide text is derived from it. [ ]: non-standard residue; d: D form. NMeL = CN[C@@H](CC(C)C)C(=O)O; dNMeL = CN[C@H](CC(C)C)C(=O)O; NMeA = CN[C@@H](C)C(=O)O; dNMeA = CN[C@H](C)C(=O)O
OBSERVED PROPERTY: PAMPA_R3

A selection of reference data follows.
CC[C@@H](C)[C@H]1NC(=O)[C@@H]2CCCN2C(=O)[C@H](CC(C)C)NC(=O)[C@@H](CC(C)C)NC(=O)[C@@H](Cc2ccccc2)NC(=O)[C@@H](Cc2ccccc2)NC(=O)[C@@H](C)NC(=O)[C@H]2CCCN2C(=O)[C@@H]2CCCN2C(=O)[C@@H](C(C)C)NC(=O)[C@@H]2CCCN2C(=O)[C@H]2CCCN2C1=O [Design D12.9] (cyclo([dV]P[dP][dA][dF][dF][dL]LP[dI][dP]P))    BQL
CC[C@H](C)[C@@H]1NC(=O)[C@H](Cc2ccccc2)NC(=O)[C@H]2CCCN2C(=O)[C@H]([C@@H](C)CC)NC(=O)[C@H](C(C)C)NC(=O)[C@@H](C)NC(=O)[C@H]2CCCN2C1=O (single isomer, unassigned) [Design D7.8.p1, VAL ILE DPRO PHE ILE DPRO DALA]    6.04e-06 cm/s
CC(C)C[C@@H]1NC(=O)[C@@H](CC(C)C)NC(=O)[C@@H]2CCCN2C(=O)[C@@H](CC(C)C)NC(=O)[C@H](C)N(C)C(=O)[C@H](C)NC(=O)[C@H](CC(C)C)N(C)C(=O)[C@@H]2CCCN2C(=O)[C@H](CC(C)C)NC(=O)[C@H](CC(C)C)N(C)C1=O [Design D10.16] (cyclo(A[NMeA][dL]P[dL]L[NMeL]LP[NMeL]))    2.32E-06
CC[C@@H](C)[C@H]1NC(=O)[C@@H](CC(C)C)NC(=O)[C@@H](CC(C)C)NC(=O)[C@H]2CCCN2C(=O)[C@H](CC(C)C)N(C)C(=O)[C@@H](C)N(C)C(=O)[C@@H]2CCCN2C(=O)[C@@H]([C@H](C)CC)NC(=O)[C@@H](C(C)C)NC(=O)[C@@H]2CCCN2C1=O [Design D10.46] (cyclo([NMeL][dP][dL][dL][dI]P[dV][dI]P[dNMeA]))    6.41E-07

I need PAMPA_R3 for every entry listed below, if you could help.
1. CC[C@H](C)[C@@H]1NC(=O)[C@@H](CC(C)C)NC(=O)[C@@H](C)N(C)C(=O)[C@H](Cc2ccccc2)NC(=O)[C@@H](CC(C)C)NC(=O)[C@@H](C)N(C)C(=O)[C@@H]2CCCN2C(=O)[C@H](C(C)C)NC(=O)[C@H]2CCCN2C(=O)[C@@H]2CCCN2C1=O [Design D10.31] (cyclo(F[dNMeA][dL]IP[dP]VP[dNMeA][dL]))
2. CC[C@@H](C)[C@H]1NC(=O)[C@H](Cc2ccccc2)NC(=O)[C@@H](CC(C)C)N(C)C(=O)[C@@H]2CCCN2C(=O)[C@@H](C(C)C)NC(=O)[C@@H](C)N(C)C(=O)[C@H]2CCCN2C(=O)[C@@H](CC(C)C)NC(=O)[C@H](CC(C)C)NC(=O)[C@@H]2CCCN2C1=O [Design D10.30] (cyclo(F[dI]PL[dL][dP][dNMeA][dV]P[dNMeL]))

# output
1. 2.20E-06
2. 4.05E-06
